System: KU-812
STUDY CONDITIONS: 72 h
Each entry below lists one item and its recorded IC50 (cell viability) value.

- COMPOUND: "CO[C@H]1C[C@@H]2CC[C@@H](C)[C@@](O)(O2)C(=O)C(=O)N2CCCC[C@H]2C(=O)O[C@H]([C@H](C)C[C@@H]2CC[C@@H](OC(=O)C(C)(CO)CO)[C@H](OC)C2)CC(=O)[C@H](C)/C=C(\\C)[C@@H](O)[C@@H](OC)C(=O)[C@H](C)C[C@H](C)/C=C/C=C/C=C/1C [Temsirolimus]"
  OBSERVED RESULT: "1.11 nM"

Shifting focus to the compound that follows.
# input So what does the record say about IC50 (cell viability) for C[C@H]1c2cccc(O)c2C(=O)C2C(=O)[C@]3(O)C(=O)C(C(N)=O)C(=O)[C@@H](N(C)C)[C@@H]3[C@@H](O)[C@@H]21 (some centres not stated) [Doxycycline] ?
# output > 10000 nM
